Hey, just so you know, these numbers are from PubChem BioAssay (NCI).

Test system: ACHN renal
Experiment: NCI-60 one-dose screen, 48 h
Details: 10 µM unless noted
Method: Growth inhibition of the ACHN human tumor cell line is measured as a screen for anti-cancer activity. Cells are grown in 96 well plates and exposed to the test compound for 48 hours. Compounds are tested at a single concentration, which is 10^-5 M for most compounds. The reported endpoint is percent growth (GI% or GIPRCNT), where numbers from 0 - 100% represent growth inhibition, and numbers from -100% - 0 represent cell death. For example, a value of 40 represents 60% growth inhibition. […]
The panel holds about 83,000 compounds, 20% with a hit somewhere; the sample as a whole holds those more often. Activity calls are given as the source filed them. The calls were made as follows: active = growth percent below 10; inactive = the rest.
Outcome codes: 1.0 = active, 0.0 = inactive

# Chem Smiles, Class Label
records = [
    ("O=C1/C(=C/c2ccccc2)CN(C(=O)CCN2CCC(=NO)CC2)C/C1=C\\c1ccccc1", 1.0),
    ("Cc1cc(N)n(S(=O)(=O)c2oc(-c3ccccc3)nc2C#N)n1", 1.0),
    ("CNc1ccc(Br)c2c1C(=O)c1ccccc1C2=O", 0.0),
    ("COC(=O)[C@]12CC[C@@H](C)[C@H](C)[C@@H]1C1=CC[C@@H]3[C@@]4(C)C(C=O)=C[C@@](C)(COC(=O)c5ccco5)[C@@H]4[C@H](O)C[C@@]3(C)[C@]1(C)CC2", 1.0),
    ("O=C(c1c[nH]c(=O)c(-c2ccccc2)c1)c1ccccc1O", 0.0),
]

---

The following compounds are listed with their measured growth values.
Tested on: UO-31 renal
Experiment: NCI-60 one-dose screen, 48 h (100 = growth as untreated, 0 = no growth, -100 = all killed)
Conditions: 10 µM unless noted
About 83,000 compounds went through this panel and 20% of them were active in at least one assay; those are over-represented in the sample as a whole. Activity calls are given as the source filed them. How the source made its calls: active means growth percent below 10; inactive means the rest.

# Chem Smiles, growth
rows = [
    ("COc1ccc(-c2nc(SCCC(C)C)nc(Nc3ccc(F)c(Cl)c3)c2C#N)cc1", "56.6% (inactive)"),
    ("CCN(CC)c1ccc2[nH]c3c(C(N)=O)cc(=O)c(=O)c=3oc2c1", "-28.8% (active)"),
    ("CCCCNC(=O)Oc1ccc(/C(=C(\\C)c2ccccc2)c2ccc(OCCN(CC)CC)cc2)cc1", "44.1% (inactive)"),
]

---

The following compounds are listed with their measured growth values.
Tested on: NCI-H23 lung
Assay: NCI-60 one-dose screen, 48 h (100 = growth as untreated, 0 = no growth, -100 = all killed)
Settings: 10 µM unless noted
The panel holds about 83,000 compounds, 20% with a hit somewhere; the sample as a whole holds those more often.
Metric Name: growth (%)

# Compound, Recorded Value
rows = [
    ("OC(c1cc2cc(Br)ccc2c2cc(Br)ccc12)C1CCCCN1 (centres undefined)", -75.4),
    ("CCOC(=O)c1ccc2c(c1)nc(-c1ccc(OCc3ccccc3)c(OC)c1)n2-c1cc(C(C)(C)C)[nH]n1", 88.1),
    ("CCCOC(=O)n1cccc1", 99),
    ("COC(=O)c1cc2cc(-c3ccc(OC)cc3)cnc2[nH]1", 36.8),
    ("CC(C)C1=CC2=C(C=O)C[C@@H]3[C@](C)(CCC[C@@]3(C)C(=O)OCC#CCN3CCCC3)[C@H]2CC1", 62.2),
    ("C=C1C(=O)O[C@H]2[C@H]1CC/C(Cn1cc(CNC(=O)/C=C/c3c[nH]c4ccccc34)nn1)=C\\CC[C@@]1(C)O[C@@H]21", 100),
    ("Fc1ccc(-c2nc(-c3nc4ncccc4[nH]3)cc3c2[nH]c2ccccc23)cc1F", 67.2),
    ("CC(=O)Nc1ccc(S(=O)(=O)n2ccc(-c3ccc4c(c3)CCC(C)(C)O4)n2)cc1", 56.6),
    ("COc1cc2c(cc1OCCCN1CCN(CCCn3c4ccccc4c4ccccc43)CC1)N=C[C@@H]1CCCN1C2=O", -30.6),
]

---

Test system: IGROV1 ovarian
Test: NCI-60 one-dose screen, 48 h
Conditions: 10 µM unless noted
The panel holds about 83,000 compounds, 20% with a hit somewhere; the sample as a whole holds those more often. Activity calls are given as the source filed them. How the source made its calls: active means growth percent below 10; inactive means the rest.
Outcome codes: label 1 = active, label 0 = inactive

# Compound, Class Label
records = [
    ("Cc1ccc(S(=O)(=O)C2=C3C(=C(c4ccccc4)c4ccccc43)CN(S(=O)(=O)c3ccc(C)cc3)C2)cc1", "label 0"),
    ("C/C(=C\\c1ccc(OCC(=O)O)c(Cl)c1Cl)[N+](=O)[O-]", "label 0"),
    ("COc1cc(NC(N)=NCCC(C)(C)Oc2ccc(C(F)(F)F)cc2)ncc1C#N", "label 1"),
    ("O=C1/C(=C/c2ccc(Cl)cc2)CN(Cc2cn(CCNc3ccnc4cc(Cl)ccc34)nn2)C/C1=C\\c1ccc(Cl)cc1", "label 1"),
    ("C=C1CCC2C3(C)COC(c4ccc(N(C)C)cc4)OC3CCC2(C)C1C/C=C1/C(=O)OCC1O (stereo not drawn)", "label 0"),
    ("NC1=C(/C(N)=N/O)C(c2ccccc2)c2ccc3ccccc3c2O1 (stereo not drawn)", "label 0"),
    ("O=S(=O)(CC(O)(c1ccccc1)c1ccccc1)CC(O)(c1ccccc1)c1ccccc1", "label 0"),
    ("COc1cccc(-c2nc3sccn3c2-c2ccnc(NCCCNS(=O)(=O)c3ccc(F)cc3)c2)c1", "label 0"),
    ("Cc1ccc(-c2cc3nc(C(Cl)Cl)nc(-c4ccccc4C)n3n2)cc1", "label 0"),
    ("O=C([O][Sn]([O]C(=O)c1ccccn1)([c]1ccccc1)[c]1ccccc1)c1ccccn1", "label 0"),
    ("CCN1CCN(CC(=O)N2c3cccc4cccc(c34)N(C(=O)CN3CCN(CC)CC3)C2c2cn(-c3ccccc3)nc2-c2cccc([N+](=O)[O-])c2)CC1", "label 1"),
    ("CN(C)CCCN(c1nc(C(Cl)(Cl)Cl)ns1)c1nc(C(Cl)(Cl)Cl)ns1", "label 0"),
    ("COc1cc(C2C3=C(COC3=O)Nc3cc4c(cc32)OCO4)cc2c1OCO2 (stereo not drawn)", "label 0"),
    ("CN1CCN(CCCOc2ccc3nc(Nc4ccc(Cl)c(C(F)(F)F)c4)ccc3c2)CC1", "label 0"),
    ("CCN(CC)CCOc1ccc(/C(=C(/C)c2ccccc2)c2ccc(OC(C)=O)cc2)cc1", "label 0"),
    ("Cc1cc(N/N=C/c2nc(-c3ccccc3)oc2C)c2cc(Br)ccc2n1", "label 0"),
    ("O=C1c2c(c3c4ccccc4n(CCCCCCBr)c3c3[nH]c4ccccc4c23)C(=O)N1O", "label 1"),
    ("CCOC(=O)C1=C(C)NC(C)=C(C(=O)OCC)C1(C)C", "label 0"),
    ("CCN(CC)CCCNc1nccc2ccc(Cl)cc12", "label 0"),
    ("COc1cc(NCCCCCN)c2ncccc2c1", "label 0"),
    ("Cn1cnc2c(N3CCN(C(=O)OCc4ccc5c(Cl)cc(Cl)c(O)c5n4)CC3)nc(Cl)nc21", "label 0"),
    ("COc1cc(/C(C#N)=C/c2ccc3c(c2OC)OCO3)cc2c1OCO2", "label 0"),
    ("CN(CCCCCl)P(=O)(OCc1ccc([N+](=O)[O-])o1)C(F)(F)C[C@H](NC(=O)CNC(=O)c1ccc(N=[N+]=[N-])cc1)C(=O)NCCc1ccc(O)cc1 (stereo partly drawn)", "label 0"),
    ("CC(C)(C)n1cc(-c2ccnc(NCCNS(=O)(=O)c3ccc(Cl)cc3)c2)c(-c2cccc(O)c2)n1", "label 0"),
    ("COc1cc(-c2nc(N=Nc3c(O)[nH]c4ccc(Br)cc34)[nH]c(=O)c2C#N)cc(OC)c1OC", "label 0"),
    ("Cc1ccc(N2CCN(C(C)C(N)=O)CC2)cc1 (stereo not drawn)", "label 0"),
    ("C=CCn1c2ccccc2c2c3c(c4c5ccccc5n(CC=C)c4c21)C(=O)N(O)C3=O", "label 1"),
    ("O=C1NN(C(=O)c2ccc(Cl)cc2)C(c2ccccc2)=N/C1=C\\c1ccc(F)cc1", "label 0"),
    ("COc1ccc(C(=O)N2NC(=O)/C(=C/c3ccccc3F)N=C2c2ccccc2)cc1", "label 0"),
    ("COc1ccc(Nc2[nH]n3c(=O)cc(C)nc3c2C(N)=O)c(OC)c1", "label 0"),
    ("CC(C)CSc1nc(NN)c(C#N)c(-c2ccc(F)cc2)n1", "label 0"),
    ("O=C(/C=C/c1ccccc1)c1cccc(O)c1", "label 0"),
    ("C=CCSc1n[nH]c(-c2cccs2)n1", "label 0"),
    ("COc1ccc(/C=C2/C(=O)NC(SCC(=O)N3CCN(c4cc5c(cc4F)c(=O)c(C(=O)O)cn5C4CC4)CC3)=NC2N)cc1OC (stereo not drawn)", "label 0"),
    ("N[C@@H]1CCN(C(=O)c2cc3cc(Cl)c(F)c(F)c3[nH]2)C1", "label 0"),
    ("CCCCCCCCC(C)OC(=O)c1nn(C(C)=O)c2ccccc12 (stereo not drawn)", "label 0"),
    ("COc1ccc(C(=O)N2NC(=O)/C(=C/c3cn(-c4ccccc4)nc3-c3ccccc3)N=C2c2ccccc2)cc1", "label 0"),
    ("CC(C)(C)n1cc(-c2ccnc(NCCNS(=O)(=O)c3ccc(C(F)(F)F)cc3)c2)c(-c2cccc(O)c2)n1", "label 0"),
]
